Target: T1, human GIP receptor (human, UniProt P48546 22-466)
T1 sequence (looked up): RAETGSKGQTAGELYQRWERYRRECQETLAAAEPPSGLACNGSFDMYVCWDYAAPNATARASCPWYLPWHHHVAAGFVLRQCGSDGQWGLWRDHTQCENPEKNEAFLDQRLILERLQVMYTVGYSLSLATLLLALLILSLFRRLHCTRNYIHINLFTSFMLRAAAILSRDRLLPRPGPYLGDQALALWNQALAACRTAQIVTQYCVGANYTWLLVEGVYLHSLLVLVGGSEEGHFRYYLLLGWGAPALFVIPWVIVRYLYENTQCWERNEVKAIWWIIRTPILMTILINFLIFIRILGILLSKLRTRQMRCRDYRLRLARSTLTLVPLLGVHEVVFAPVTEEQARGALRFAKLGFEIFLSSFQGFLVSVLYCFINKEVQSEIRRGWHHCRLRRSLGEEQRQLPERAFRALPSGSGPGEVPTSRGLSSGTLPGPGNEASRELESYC
Assay: cell-based or functional assay
Numbered stars: 1 amine (or outer) side, 2 acyl side, 3 side chain; on linkers, the order of the positions; unused ones are H or OH. Square brackets hold non-standard residues; d marks the D form. Side chains are listed from the residue outwards. Ends that are not written are not given here. * marks the point of attachment. γGlu = O=C(O)[C@H](CCC(=O)[*:2])N[*:1]; Palmitoyl = CCCCCCCCCCCCCCCC(=O)*; gAAA = not defined here; AEEA = NCCOCCOCC(=O)O; Aib = CC(C)(N)C(=O)O
Kindly supply the reported EC50 hGIP R (cAMP formation) values for the records listed here.
Express it in pM; write the number only.

Suppose we examine the binder H[Aib]HGTFTSDLSKLK([γGlu-γGlu-Palmitoyl])EEQRQ[Aib]EFIEWLKAGGHPS[Aib]KPPPK-NH2 [SEQ ID NO: 12] ; what EC50 hGIP R (cAMP formation) value has been reported?
1.9

Field request: EC50 hGIP R (cAMP formation) | item: H[Aib]HGTFTSDLSKLK([γGlu-AEEA-gAAA-Palmitoyl])EEQRQKEFIEWLKAGGHPS[Aib]KPPPK-NH2 (reading uncertain) [SEQ ID NO: 22]
1.1

So what's the measured EC50 hGIP R (cAMP formation) for this one? H[Aib]HGTFTSDLSKLK([γGlu-γGlu-Palmitoyl])EEQRQKEFIEWLKAGGPPS[Aib]KPPPK-NH2 [SEQ ID NO: 8]
1.6

Given H[Aib]HGTFTSDLSKLK([γGlu-AEEA-gAAA-Palmitoyl])EEQRQKEFIEWLKA[dA]GHPS[Aib]KPPPK-NH2 (reading uncertain) [SEQ ID NO: 23] , state its recorded EC50 hGIP R (cAMP formation).
1.5
